Would you mind telling me the reported logKi of each entry?
PROTOCOL_SUMMARY: Binding affinity to GABAA receptor
Set-up: unit not given here
Number, no unit, nothing else.

Ask | Which logKi is reported for this molecule? O=c1cc(-c2ccccc2O)oc2ccc(O)cc12
Reply | -1.47

Ask | Which logKi is reported for this molecule? O=c1cc(-c2ccc([N+](=O)[O-])cc2)oc2ccc(Br)cc12
Reply | -0.699

Ask | Which logKi is reported for this molecule? O=c1cc(-c2cccc(Br)c2)oc2ccc(Cl)cc12
Reply | -1.64

Ask | Which logKi is reported for this molecule? COc1c(O)c(OC)c2oc(-c3ccccc3)cc(=O)c2c1O
Reply | -0.699

Ask | Which logKi is reported for this molecule? O=c1cc(-c2ccc(O)cc2)oc2cc(O)cc(O)c12
Reply | 0.602

Ask | Which logKi is reported for this molecule? COc1ccc2oc(-c3cccc(Br)c3)cc(=O)c2c1
Reply | 0

----------
PROTOCOL_SUMMARY: Binding affinity to GABAA receptor
Design: unit not given here
Would you mind telling me the reported logKi of each entry?
Number, no unit, nothing else.

Ask | Which logKi is reported for this molecule? O=c1cc(-c2cccc([N+](=O)[O-])c2)oc2ccc([N+](=O)[O-])cc12
Reply | -1.58

Ask | Which logKi is reported for this molecule? COc1ccccc1-c1cc(=O)c2ccccc2o1
Reply | 1.51

Ask | Which logKi is reported for this molecule? O=c1cc(-c2ccccc2)oc2cc(O)cc(O)c12
Reply | 0.477

Ask | Which logKi is reported for this molecule? O=c1cc(-c2ccccc2O)oc2ccc3ccccc3c12
Reply | -1.57

Ask | Which logKi is reported for this molecule? COc1ccccc1-c1cc(=O)c2cc(O)ccc2o1
Reply | 0.976

Ask | Which logKi is reported for this molecule? O=c1cc(-c2cccc([N+](=O)[O-])c2)oc2ccccc12
Reply | -0.545

Ask | Which logKi is reported for this molecule? COc1cc(O)c2c(=O)cc(-c3ccccc3)oc2c1
Reply | 1.7

Ask | Which logKi is reported for this molecule? O=c1cc(-c2cccc(Cl)c2)oc2ccc(Br)cc12
Reply | -1.77

Ask | Which logKi is reported for this molecule? O=c1cc(-c2ccccc2O)oc2cc(O)cc(O)c12
Reply | -1.12

Ask | Which logKi is reported for this molecule? O=c1cc(-c2cccc(Cl)c2)oc2ccc(Cl)cc12
Reply | -1.64

Ask | Which logKi is reported for this molecule? O=c1cc(-c2ccc(F)cc2)oc2ccccc12
Reply | 0.556

Ask | Which logKi is reported for this molecule? O=c1cc(-c2cccc(F)c2)oc2ccc(Br)cc12
Reply | -1.38

----------
PROTOCOL_SUMMARY: Binding affinity to GABAA receptor
Design: unit not given here
Would you mind telling me the reported logKi of each entry?
Number, no unit, nothing else.

Ask | Which logKi is reported for this compound? O=c1cc(-c2ccccc2)oc2ccc([N+](=O)[O-])cc12
Reply | -0.561

Ask | Which logKi is reported for this compound? Cc1ccc2oc(-c3ccccc3)cc(=O)c2c1
Reply | -0.903

Ask | Which logKi is reported for this compound? O=c1cc(-c2cccc(Br)c2)oc2ccccc12
Reply | -0.384

Ask | Which logKi is reported for this compound? COc1cccc(-c2cc(=O)c3cc(F)ccc3o2)c1
Reply | 0.398

Ask | Which logKi is reported for this compound? O=c1cc(-c2ccccc2F)oc2ccc(Cl)cc12
Reply | -0.38

Ask | Which logKi is reported for this compound? O=c1cc(-c2cccc(Br)c2)oc2ccc([N+](=O)[O-])cc12
Reply | -1.6
